These entries and their values trace back to paper PMC12888917.

STUDY_TARGET: T1, full-length RPN1 (UniProt Q13200 1-908)
T1 construct: RPN1, full length, as isolated protein in the BLI assay
T1 sequence (Q13200 whole entry): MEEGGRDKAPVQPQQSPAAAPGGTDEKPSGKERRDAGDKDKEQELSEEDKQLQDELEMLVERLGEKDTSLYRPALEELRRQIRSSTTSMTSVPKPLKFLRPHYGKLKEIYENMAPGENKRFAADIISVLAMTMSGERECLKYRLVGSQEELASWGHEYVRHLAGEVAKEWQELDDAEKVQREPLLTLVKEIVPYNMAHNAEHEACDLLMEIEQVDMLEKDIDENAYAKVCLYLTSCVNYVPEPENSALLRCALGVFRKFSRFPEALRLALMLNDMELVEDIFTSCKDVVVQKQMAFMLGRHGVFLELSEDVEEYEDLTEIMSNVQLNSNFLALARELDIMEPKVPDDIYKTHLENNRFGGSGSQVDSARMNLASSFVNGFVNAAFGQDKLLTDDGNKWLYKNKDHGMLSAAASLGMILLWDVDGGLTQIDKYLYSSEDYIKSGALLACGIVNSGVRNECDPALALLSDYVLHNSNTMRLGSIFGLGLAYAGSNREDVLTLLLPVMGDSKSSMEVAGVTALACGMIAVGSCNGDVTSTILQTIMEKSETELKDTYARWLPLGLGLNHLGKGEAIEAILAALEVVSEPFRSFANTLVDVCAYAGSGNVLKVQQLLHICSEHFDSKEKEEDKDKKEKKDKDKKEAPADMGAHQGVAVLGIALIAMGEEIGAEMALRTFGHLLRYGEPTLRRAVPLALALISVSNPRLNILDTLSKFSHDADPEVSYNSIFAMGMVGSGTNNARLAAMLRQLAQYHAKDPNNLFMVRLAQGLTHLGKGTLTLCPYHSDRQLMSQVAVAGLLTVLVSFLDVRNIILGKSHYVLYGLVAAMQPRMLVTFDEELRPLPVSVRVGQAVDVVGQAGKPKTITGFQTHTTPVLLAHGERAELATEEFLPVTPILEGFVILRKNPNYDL
ASSAY_DETAILS: BLI; full-length RPN1 and GST-tagged midnolin C-Helix (375–413)
CONDITION_CONTEXT: both partners purified

BINDER	Kd
PPGDRLRQTENRATRCKVERLQLLLQQKRLRRKARRDAR (domain or fragment, human, UniProt Q504T8 375-413, looked up, also called MIDN C-Helix) [GST-tagged midnolin C-Helix (375–413)]	~88.5 nM
